This collection of values is drawn from patent US4327097A.

# Test system: Escherichia coli
# protocol_details: MIC against clinical isolates
# Assay type: cell-based
# condition_details: Table 5-2, clinical isolate; unit assumed
reported_property: MIC Escherichia coli GN 3465 (µg/mL)
Lab book: enter the figure in µg/mL, no units written.

The reported value for CN1CCN(C(=O)NC(C(=O)NC2C(=O)N3C2SC(C)(C)C3C(=O)O)c2ccccc2)C(=O)C1=O (single isomer, unassigned) in terms of MIC Escherichia coli GN 3465 is 200

The reported MIC Escherichia coli GN 3465 of the compound CCCCCCCCN1CCN(C(=O)NC(C(=O)NC2C(=O)N3C2SC(C)(C)C3C(=O)O)c2ccccc2)C(=O)C1=O (single isomer, unassigned) was 6.25

// recorded MIC Escherichia coli GN 3465 for CCCCCCN1CCN(C(=O)NC(C(=O)NC2C(=O)N3C2SC(C)(C)C3C(=O)O)c2ccccc2)C(=O)C1=O (single isomer, unassigned) : 6.25

Entry under test: CC(C)N1CCN(C(=O)NC(C(=O)NC2C(=O)N3C2SC(C)(C)C3C(=O)O)c2ccccc2)C(=O)C1=O (single isomer, unassigned) . Its MIC Escherichia coli GN 3465 was 50

Per the record, CCCN1CCN(C(=O)NC(C(=O)NC2C(=O)N3C2SC(C)(C)C3C(=O)O)c2ccccc2)C(=O)C1=O (single isomer, unassigned) has MIC Escherichia coli GN 3465 of 50

* * *

Consider the following compounds; for each one, report its MIC Esche--richin coil NIHJ.
# Test system: Escherichia coli NIHJ
# protocol_details: MIC, plate method, standard strains
# Format: cell-based
# condition_details: Table 3, standard strain; unit assumed

Form field MIC Esche--richin coil NIHJ, entry CC1(C)S[C@@H]2[C@H](NC(=O)[C@H](NC(=O)N3CCN(C(=O)Nc4ccccc4)C(=O)C3)c3ccccc3)C(=O)N2[C@H]1C(=O)O [Compound 33] : < 1.57 µg/mL

Just so you know, measured MIC Esche--richin coil NIHJ for CC1(C)SC2C(NC(=O)C(NC(=O)N3CCN(c4ccccc4)C(=O)C3=O)c3ccccc3)C(=O)N2C1C(=O)O (single isomer, unassigned) [Compound 43] came out at < 1.57 µg/mL

In plain terms, CN1CCN(C(=O)NC(C(=O)NC2C(=O)N3C2SC(C)(C)C3C(=O)O)c2ccccc2)C(=O)C1=O (single isomer, unassigned) [Compound 37] has a documented MIC Esche--richin coil NIHJ of < 1.57 µg/mL

MIC Esche--richin coil NIHJ recorded for this compound, CC1(C)SC2C(NC(=O)C(NC(=O)N3CC(=O)NC(=O)C3)c3ccccc3)C(=O)N2C1C(=O)O (stereo not shown) [compound 59] , is < 1.57 µg/mL

Per the record, CCN1CCN(C(=O)N[C@@H](C(=O)N[C@@H]2C(=O)N3[C@@H]2SC(C)(C)[C@@H]3C(=O)O)c2ccccc2)C(=O)C1=O [Compound 36] has MIC Esche--richin coil NIHJ of < 1.57 µg/mL

Measured MIC Esche--richin coil NIHJ, COCOC(=O)C1N2C(=O)C(NC(=O)C(NC(=O)N3CCN(C)C(=O)C3=O)c3ccccc3)C2SC1(C)C (single isomer, unassigned) [compound 50] : < 0.79 µg/mL

MIC Esche--richin coil NIHJ in this record for CC(C)N1CCN(C(=O)NC(C(=O)NC2C(=O)N3C2SC(C)(C)C3C(=O)O)c2ccccc2)C(=O)C1=O (single isomer, unassigned) [Compound 40] : < 0.1 µg/mL

Form: compound = CCCCN1CCN(C(=O)NC(C(=O)NC2C(=O)N3C2SC(C)(C)C3C(=O)O)c2ccccc2)C(=O)C1=O (single isomer, unassigned) [Compound 39] ; MIC Esche--richin coil NIHJ = < 0.1 µg/mL

According to the records, this compound C=CCN1CCN(C(=O)NC(C(=O)NC2C(=O)N3C2SC(C)(C)C3C(=O)O)c2ccccc2)C(=O)C1=O (single isomer, unassigned) [Compound 42] displays MIC Esche--richin coil NIHJ of < 1.57 µg/mL

Lab note: measured MIC Esche--richin coil NIHJ of CCCCN1CCN(C(=O)N[C@@H](C(=O)N[C@@H]2C(=O)N3[C@@H]2SC(C)(C)[C@@H]3C(=O)O)c2ccccc2)C(=O)C1 [Compound 14] was < 1.57 µg/mL
